Biological target: Apelin receptor (Homo sapiens)
Test: potency against CXCR6 with APJ panel – cell-based, beta-arrestin, DiscoveRx, uHTS hits, dose response (AID 624129)
Conditions: CXCR6 beta-arrestin (DiscoveRx) antagonist cell assay, APJ, dose range 1
Listed compounds paired with reported IC50

Study these solved cases before continuing.
>  <compound-structure-string>
COC(=O)c1ccc2c(c1)C(C)(C)C(/C=C/c1ccc(OC)c(OC)c1OC)=[N+]2C

>  <assay-metric>
IC50

>  <data-value>
15.1 µM

$$$$
>  <compound-structure-string>
O=[N+]([O-])c1cc(Cc2ccccc2)cc(C=Nc2ccc(N3CCOCC3)cc2)c1O

>  <assay-metric>
IC50

>  <data-value>
15.7 µM

$$$$

-- ask Tell me its IC50 given Cc1ccccc1Oc1cc(-n2ncc(Cl)c(Cl)c2=O)ncn1 as the entry.
-- reply 3.31 µM

-- ask Using known records, supply IC50 for COc1ccc(C)c(-n2c(=O)n(Cc3ccccc3)c(=O)c3[nH]cnc32)c1
-- reply 13.5 µM
